System: Proteus vulgaris
Assay: Aerobic antibacterial MIC, standard dilution technique
Format: cell-based
Details: clinical isolate, value in parentheses, read-out: Minimum inhibitory concentration (MIC) Proteus vulgaris
VALUE KIND: MIC (µM)

MOLECULE: CSCC[C@H](NC(=O)c1cnccn1)C(=O)NNC(=O)c1ccncc1
TARGET DESC: Proteus vulgaris
RECORDED RESULT: 0.16
--
MOLECULE: CC[C@H](C)[C@H](NC(=O)c1cnccn1)C(=O)NNC(=O)c1ccncc1
TARGET DESC: Proteus vulgaris
RECORDED RESULT: 0.17
--
MOLECULE: O=C(NNC(=O)c1ccncc1)c1ccncc1 [compound 16, N′-Isonicotinoylisonicotinohydrazide]
TARGET DESC: Proteus vulgaris
RECORDED RESULT: 0.12
--
MOLECULE: O=C(N[C@@H](Cc1c[nH]c2ccccc12)C(=O)O)c1cnccn1
TARGET DESC: Proteus vulgaris
RECORDED RESULT: 0.19
--
MOLECULE: CC(C)[C@H](NC(=O)c1cnccn1)C(=O)NNC(=O)c1ccncc1
TARGET DESC: Proteus vulgaris
RECORDED RESULT: 0.18
--
MOLECULE: CC(C)C[C@H](NC(=O)c1cnccn1)C(=O)NNC(=O)c1ccncc1
TARGET DESC: Proteus vulgaris
RECORDED RESULT: 0.17
--
MOLECULE: CSCC[C@H](NC(=O)c1cnccn1)C(=O)O
TARGET DESC: Proteus vulgaris
RECORDED RESULT: 0.24
--
MOLECULE: CC[C@@H](C)[C@H](NC(=O)c1cnccn1)C(=O)O
TARGET DESC: Proteus vulgaris
RECORDED RESULT: 0.25
--
MOLECULE: O=C(NNC(=O)[C@H](Cc1c[nH]c2ccccc12)NC(=O)c1cnccn1)c1ccncc1
TARGET DESC: Proteus vulgaris
RECORDED RESULT: 0.14
--
MOLECULE: NNC(=O)c1ccncc1
TARGET DESC: Proteus vulgaris
RECORDED RESULT: 467
--
MOLECULE: O=C(NNC(=O)C(Cc1ccccc1)NC(=O)c1cnccn1)c1ccncc1 (stereo not drawn)
TARGET DESC: Proteus vulgaris
RECORDED RESULT: 41
--
MOLECULE: O=C(NNC(=O)c1cnccn1)c1ccncc1
TARGET DESC: Proteus vulgaris
RECORDED RESULT: 263

----------
Tested on: Mycobacterium marinum
Test: microbe, parasite or virus in culture
Type: cell-based
Settings: clinical isolate, read-out: Minimum inhibitory concentration (MIC) M. marinum
Below, each entry is listed with its recorded MIC.
VALUE KIND: MIC (µg/mL)

COMPOUND: O=C(N[C@@H](Cc1c[nH]c2ccccc12)C(=O)O)c1cnccn1 [10g, (Pyrazine-2-carbonyl)-L-tryptophan]
UNIT ABBREV: µg/mL
MEASUREMENT QUALIFIER: >
RECORDED RESULT: 20
--
COMPOUND: CC[C@@H](C)[C@H](NC(=O)c1cnccn1)C(=O)O [10c, (Pyrazine-2-carbonyl)-L-alloisoleucine]
UNIT ABBREV: µg/mL
MEASUREMENT QUALIFIER: >
RECORDED RESULT: 20
--
COMPOUND: CC(C)[C@H](NC(=O)c1cnccn1)C(=O)NNC(=O)c1ccncc1 [12b]
UNIT ABBREV: µg/mL
MEASUREMENT QUALIFIER: =
RECORDED RESULT: 20
--
COMPOUND: CC[C@H](C)[C@H](NC(=O)c1cnccn1)C(=O)NNC(=O)c1ccncc1 [12c]
UNIT ABBREV: µg/mL
MEASUREMENT QUALIFIER: =
RECORDED RESULT: 20
